test system: Escherichia coli; test: Antibacterial activity against Escherichia coli NCTC 10418 after 18 hrs by serial dilution method; type: functional, organism-based
Calls of active or inactive are those of the source. The calls are words filed in the database; no cut-off is given here.

compound: CCCCCC/C=C/C(=O)CCSSCCC(=O)/C=C/CCCCCC
target desc: Escherichia coli
Activity: inactive
//
compound: CCCCCCCCC(=O)CCSSCCC(=O)CC(CCCCCC)SC (stereo unspecified)
target desc: Escherichia coli
Activity: inactive
//
compound: CCCCCCC1CC(=O)CCSS1 (stereo unspecified)
target desc: Escherichia coli
Activity: inactive
//
compound: CCCCCC/C=C/C(=O)CCSSCCC(=O)CC(CCCCCC)SC (stereo unspecified)
target desc: Escherichia coli
Activity: inactive
//
compound: CCCCCC/C=C/C(=O)CCSSCCC(=O)CCCCCCCC
target desc: Escherichia coli
Activity: inactive
//
compound: CCCCCCCCC(=O)CCSSCCC(=O)CCCCCCCC
target desc: Escherichia coli
Activity: inactive
